assay: amyloid nucleation score (Sup35N fusion, yeast selection) (log enrichment); library NNK3; higher = more nucleation; inactive = no reads after selection;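 also: zero at mode of non-aggregating sequences after 7 days selection at 30°C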
measured-metric: amyloid nucleation score

Some solved entries appear below for comparison.
* LVKNITPNAA | inactive
* VFLSCSCRWMVYGYNLTADC | inactive
* QLINWFRSDDLSLTAVKRKW | 0.596
* RNTMSFNDSFTNALLLKSVG | inactive
* FNWFCLFLWMRNRSKPFWTM | inactive

// query Recorded amyloid nucleation score of `CNLDLVANT` , please.
// result inactive

// query Recorded amyloid nucleation score of `CQSSDFTEFVRKVKRPPQAC` , please.
// result inactive

// query Recorded amyloid nucleation score of `PRGWWPMGFSCGYFVFALTP` , please.
// result inactive

// query Recorded amyloid nucleation score of `LYYKSLGRCRNYLYCSH` , please.
// result 0.596

// query Recorded amyloid nucleation score of `VECSIVLCII` , please.
// result 2.26

// query Recorded amyloid nucleation score of `DMVLSEPFFFGLCFLDFWIF` , please.
// result inactive

// query Recorded amyloid nucleation score of `YVSLCTTPVGERTSYSCDIH` , please.
// result inactive

// query Recorded amyloid nucleation score of `PTFNRAMTWYFKFLFHYAHD` , please.
// result inactive

// query Recorded amyloid nucleation score of `FVSLALGFGILSFYKDRLWD` , please.
// result 0.598

// query Recorded amyloid nucleation score of `SRYMNRR` , please.
// result inactive

// query Recorded amyloid nucleation score of `CVMNRN` , please.
// result inactive

// query Recorded amyloid nucleation score of `VFPPEMRVFPLFCW` , please.
// result inactive

// query Recorded amyloid nucleation score of `NPETASLNLIKMSMHVSSFV` , please.
// result inactive

// query Recorded amyloid nucleation score of `ERELGQRLSCTGNSTVWSYE` , please.
// result inactive

----------
assay: amyloid nucleation score (Sup35N fusion, yeast selection) (log enrichment); library NNK3; higher = more nucleation; inactive = no reads after selection
measured-metric: amyloid nucleation score

Some solved entries appear below for comparison.
• LASRMMFSLTDAMTDADGSV = inactive
• NDSSQLLITI = inactive
• VYCSSVSCLEVWCGPLHTVR = 1.53
• VSFVSSVIVDGMPEILSIRY = inactive
• VNNKSFCRWAGANNLLQVMH = inactive
• LRGKDN = inactive
• SLYMTVGESVPSMSASMYFG = inactive
• DMFVECRLISFNFTFIRVLI = inactive
• DRSLMRS = inactive
• CFASWN = inactive

// query Recorded amyloid nucleation score of `ILAFLERYTLMWFRELYNAS` , please.
// result inactive

// query Recorded amyloid nucleation score of `VRCKVMSSAAATVFFVSGAV` , please.
// result inactive

// query Recorded amyloid nucleation score of `MRCSDGPPKWNHD` , please.
// result -0.277

// query Recorded amyloid nucleation score of `LFTKRSYCCSCVVSGSEWAY` , please.
// result 0.852

// query Recorded amyloid nucleation score of `DRDGQPAWHLS` , please.
// result inactive

// query Recorded amyloid nucleation score of `LSGADTYRSTTRSYGGNDVV` , please.
// result -0.641

----------
assay: amyloid nucleation score (Sup35N fusion, yeast selection) (log enrichment); library NNK3; higher = more nucleation; inactive = no reads after selection
measured-metric: amyloid nucleation score

Some solved entries appear below for comparison.
- VSWVYRSGRFYDGVGVGYRT: inactive
- SYRRIGHMRTKLGQVVR: inactive
- KYINFSLNS: inactive
- YILRFSWFIYLIRQWSNSGP: inactive
- FDGNFGWARRVNAGDSLFMF: inactive
- RPVAFPIR: inactive

// query Recorded amyloid nucleation score of `WCASMRNVCYFVVFMESKLS` , please.
// result 0.294

// query Recorded amyloid nucleation score of `SNYCCRVSFVIKLLRMVYNF` , please.
// result 2.42

// query Recorded amyloid nucleation score of `WYIFFMEVMAGRY` , please.
// result inactive

// query Recorded amyloid nucleation score of `NTLGGRLLSLCARGMAIDCL` , please.
// result 0.625

// query Recorded amyloid nucleation score of `SLMTVRVNHK` , please.
// result 0.621

// query Recorded amyloid nucleation score of `PLDQCPKVPSLVASLQSESR` , please.
// result inactive

// query Recorded amyloid nucleation score of `LSNRGLIYHEGTRICATYRE` , please.
// result 0.719

// query Recorded amyloid nucleation score of `IEFRLWYG` , please.
// result inactive

// query Recorded amyloid nucleation score of `PIPTKLLVLKRQSTMHLDRF` , please.
// result inactive

// query Recorded amyloid nucleation score of `TEDGYNNEMSRQKVMVLINT` , please.
// result inactive

// query Recorded amyloid nucleation score of `YIRLGWNVSWMLSSSEYVSH` , please.
// result 0.853

----------
assay: amyloid nucleation score (Sup35N fusion, yeast selection) (log enrichment); library NNK1; higher = more nucleation; inactive = no reads after selection
Assign amyloid nucleation score to each entry below.
Just the number, please, no unit attached.

// query Recorded amyloid nucleation score of `TWRFVFCFFWTRGPRLLICA` , please.
// result -0.768

// query Recorded amyloid nucleation score of `VMGFGTCVRKQCSNYLKGIE` , please.
// result 0.476

// query Recorded amyloid nucleation score of `RVCVLFSCWRTMYMIWNSRE` , please.
// result 5.71

// query Recorded amyloid nucleation score of `VGNRRYNTSVMALSNQRNTR` , please.
// result 0.636

// query Recorded amyloid nucleation score of `TPDHLWLWLFYLNCNTENYG` , please.
// result 7.76

// query Recorded amyloid nucleation score of `TLAIESGRFWINRLWYVEGE` , please.
// result -1.55

// query Recorded amyloid nucleation score of `GTQMVLFDY` , please.
// result 1.12

// query Recorded amyloid nucleation score of `SGFIEVYVTIRFEFLYFHTP` , please.
// result 0.131

----------
experiment: amyloid nucleation score (Sup35N fusion, yeast selection) (log enrichment); library NNK1; higher = more nucleation; inactive = no reads after selection
measured-metric: amyloid nucleation score

* ASLHHKSWTDHADTMTPPRT | inactive
* SYIALIELFLFDSRRGHESV | 0.078
* CRLCLRKHLSVISSSAEYLP | inactive
* RSSGVSVGYFRAFS | inactive

// query Recorded amyloid nucleation score of `HCVLRFCNPG` , please.
// result inactive

// query Recorded amyloid nucleation score of `LNLGGSF` , please.
// result inactive

----------
experiment: amyloid nucleation score (Sup35N fusion, yeast selection) (log enrichment); library NNK2; higher = more nucleation; inactive = no reads after selection
measured-metric: amyloid nucleation score

Some solved entries appear below for comparison.
- YIRIYRVTMRFNCINVAPWG: 6.93
- KTAFKSNTEITSPLVTVLAL: 0.555
- TCKMIAISRRGIDPGKAMHS: -1.16
- MYDCGVLFIDIRVKVGHVLE: 0.167

// query Recorded amyloid nucleation score of `FILRGDNLC` , please.
// result -1.01

// query Recorded amyloid nucleation score of `HIILIEGSMVCQTLVRGDLV` , please.
// result 5.51

// query Recorded amyloid nucleation score of `SRKFSFAYFTRFFYVLVLIV` , please.
// result inactive

// query Recorded amyloid nucleation score of `WKSLTGYIRLIFRNFWTSHD` , please.
// result inactive

// query Recorded amyloid nucleation score of `RLINRSDEVYSFLFKRRGSK` , please.
// result inactive

// query Recorded amyloid nucleation score of `FLACQYNCLVDSMG` , please.
// result 3.26

// query Recorded amyloid nucleation score of `HHMKGAGPNNLFPGDPSGAR` , please.
// result 3.46

----------
assay: amyloid nucleation score (Sup35N fusion, yeast selection) (log enrichment); library NNK1; higher = more nucleation; inactive = no reads after selection
measured-metric: amyloid nucleation score

* MGHTGYFQCKVATWCEGE | 0.792
* YIDRRLRLRVG | inactive
* ELEPCDPGF | inactive
* MIGTYRWMLIMGLETVRKGG | inactive

----------
experiment: amyloid nucleation score (Sup35N fusion, yeast selection) (log enrichment); library NNK2; higher = more nucleation; inactive = no reads after selection
measured-metric: amyloid nucleation score

• MLYLCMFTERVDDNTFALYR = inactive
• VFLVHPTFSFKNRVCLNFVW = -0.081
• GIKFCEPCDGGHGDGIWPLT = 0.708
• TKLYNDIFHNW = inactive

----------
assay: amyloid nucleation score (Sup35N fusion, yeast selection) (log enrichment); library NNK1; higher = more nucleation; inactive = no reads after selection
measured-metric: amyloid nucleation score
Just the number, please, no unit attached.

// query Recorded amyloid nucleation score of `DYSLKCLTPVVSDRAWCRLN` , please.
// result 0.398

// query Recorded amyloid nucleation score of `WAILNDVMYHMWLNTFRTNV` , please.
// result -0.295
